B1: FEM1B (parent)
chain: TLAALLLNRSESDIRYLLGYVSQQ

Variants of: B1
procedure_details: protein stability index of a GFP-peptide fusion (GPS, HEK-293T) (PSI 1-6); higher = more stable;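 note: lentivirally expressed fusions sorted by FACS into six bins by GFP to DsRed ratio, PSI derived from sequencing read proportions per bin multiplied by bin number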
assay_context: c terminus: a fixed tail appended
readout_name: protein stability index
Keep the answer to the number alone.

# variant_label, protein stability index
measured = [
    ("V21Q", 1.53),
    ("Y16C", 2.91),
]

Prompt: Requested read-out: protein stability index. Entry: L17Q
Completion: 3.77

Prompt: What about L5Y ?
Completion: 3.74

Prompt: Moving on to the next variant: S12F
Completion: 2.89

Prompt: Also, E11R please.
Completion: 3.13

Prompt: Item: Q24S
Completion: 2.18

Prompt: Entry to check: E11P
Completion: 2.08

Prompt: Then this variant: I14P
Completion: 1.79

Prompt: Same read-out for E11F ?
Completion: 3.19

Prompt: Same thing, different variant: A4W
Completion: 2.28

Prompt: Can you handle T1L next?
Completion: 1.72

Prompt: Moving on to Q24E
Completion: 2.39

Prompt: // query: N8T
Completion: 2.38
